- measurement_notes: Pharmacokinetic study in beagle dogs after oral administration of C. bungeana extract (UHPLC-MS/MS of plasma)
- test_settings: male, beagle, dog, plasma, po, 0.12 g/kg
observable: Cmax (ng/mL)

// solved cases for Cmax follow
1) COc1ccc(CCNC(=O)/C=C/c2ccc(O)c(O)c2)cc1 [Z23] = 237
2) CC(=O)O[C@H]1Cc2cc3c(cc2[C@H]2N(C)Cc4c(ccc5c4OCO5)[C@@]12C)OCO3 [Acetylcorynoline, acetylcorynoline] = 107

1. CN1C(=O)c2c(ccc3c2OCO3)C2(C)C(O)Cc3cc4c(cc3C12)OCO4 (stereo not shown) [8-oxocorynoline]
2. COc1cc2c(cc1OC)-c1cc3ccc(OC)c(OC)c3c[n+]1CC2 [Palmatine, palmatine]
Identify the entry with the smaller Cmax: 1 or 2 . Answer format: the label of the selected item.
1
(1: 94.5 ng/mL, 2: 1900 ng/mL)

----------
- measurement_notes: Stability of the analytes in beagle plasma QC samples under different storage conditions
- Type: physicochemical, beagle dog
- test_settings: high QC in beagle plasma, 2 weeks at −80 °C, n = 6
observable: Stability (% RE) Long-Term

1. COc1cc2c(cc1O)CC[n+]1cc3c(OC)c(OC)ccc3cc1-2 [Jateorhizine, jateorhizine] = 8.26
2. CN1Cc2c(ccc3c2OCO3)[C@@]2(C)[C@@H](O)Cc3cc4c(cc3[C@@H]12)OCO4 [Corynoline, corynoline] = 9.74
3. CC(=O)O[C@H]1Cc2cc3c(cc2[C@H]2N(C)Cc4c(ccc5c4OCO5)[C@@]12C)OCO3 [Acetylcorynoline, acetylcorynoline] = 7.32
4. CN1CCc2cc3c(cc2C(=O)Cc2ccc4c(c2C1)OCO4)OCO3 [Protopine, protopine] = 13.11
5. COc1cc2c(cc1OC)-c1cc3ccc(OC)c(OC)c3c[n+]1CC2 [Palmatine, palmatine] = 11.04
6. c1c2c(cc3c1OCO3)-c1cc3ccc4c(c3c[n+]1CC2)OCO4 [Coptisine, coptisine] = 13.69
7. COc1cc2c(cc1OC)[C@@H]1Cc3ccc(OC)c(OC)c3CN1CC2 [Terahydropalmatine, tetrahydropalmatine] = 10.23
8. COc1cc2c(cc1O)-c1cc3ccc(OC)c(OC)c3c[n+]1CC2 [Columbamine, columbamine] = 10.24

I. COc1ccc2cc3[n+](cc2c1O)CCc1cc2c(cc1-3)OCO2 [Berberrubine, berberrubine]
II. COc1ccc2cc3[n+](cc2c1OC)CCc1cc2c(cc1-3)OCO2 [Berberine, berberine]
III. CN1C(=O)c2c(ccc3c2OCO3)C2(C)C(O)Cc3cc4c(cc3C12)OCO4 (stereo not shown) [8-oxocorynoline]
// sort entries: Stability (% RE) Long-Term, high to low Output spec: labels arranged per the requested ranking.
I, II, III

----------
- measurement_notes: Pharmacokinetic study in beagle dogs after oral administration of C. bungeana extract (UHPLC-MS/MS of plasma)
- test_settings: male, beagle, dog, plasma, po, 0.12 g/kg
observable: Tmax (min)

1. COc1ccc2cc3[n+](cc2c1OC)CCc1cc2c(cc1-3)OCO2 [Berberine, berberine] = 55.2
2. COc1cc2c(cc1OC)-c1cc3ccc(OC)c(OC)c3c[n+]1CC2 [Palmatine, palmatine] = 57.6
3. COc1ccc(CCNC(=O)/C=C/c2ccc(O)c(O)c2)cc1 [Z23] = 57.6
